Target Entity: Human M4 (Homo sapiens)
Construct: Human or rat M4 cDNA, along with the chimeric G protein Gq,5, were transfected into Chinese hamster ovary (CHO-K1) cells; expressed in transfected cells; host or cells: CHO-K1 (M4/Gqi5/CHO)
Assay: mAChR M4 cell-based functional assay (calcium flux, decrease of EC80 acetylcholine response)
Experimental Setup: % ACh maximum at 30 μM
For each record, check the reported Human M4 Emin: if it is below 3% write Fulfilled, else write Not fulfilled.

| Compound | Qualitative Label |
| --- | --- |
| CCOCCN1C[C@H]2C[C@H](Nc3ccc(-c4cc(F)cc(F)c4F)nn3)C[C@H]2C1 | Not fulfilled |
| [2H]C(C)(c1ccccn1)N1C[C@H]2C[C@H](Nc3ccc(-c4cc(F)cc(F)c4F)nn3)C[C@H]2C1 (some centres unmarked) | Fulfilled |
| CC(C)C(O)CN1C[C@H]2C[C@H](Nc3ccc(-c4cc(F)cc(F)c4F)nn3)C[C@H]2C1 (some centres unmarked) | Not fulfilled |
| [2H]C([2H])(N1C[C@H]2C[C@H](Nc3ccc(-c4cc(F)cc(F)c4F)nn3)C[C@H]2C1)C1(C)CCCCO1 (some centres unmarked) | Fulfilled |
| CC(N1C[C@H]2C[C@H](Nc3ccc(-c4cc(F)cc(F)c4F)nn3)C[C@H]2C1)C1(C)CCOCC1 (some centres unmarked) | Fulfilled |
| [2H]C([2H])(c1c(F)cccc1F)N1C[C@H]2C[C@H](Nc3ccc(-c4cc(F)cc(F)c4F)nn3)C[C@H]2C1 | Not fulfilled |
| [2H]C([2H])(CC1COC1)N1C[C@H]2C[C@H](Nc3ccc(-c4cc(F)cc(F)c4F)nn3)C[C@H]2C1 | Not fulfilled |
| [2H]C([2H])(N1C[C@H]2C[C@H](Nc3ccc(-c4cc(F)cc(F)c4F)nn3)C[C@H]2C1)C1(C)CCOCC1 | Fulfilled |

Record "Fc1ccc(OCCN2C[C@H]3C[C@H](Nc4ccc(-c5cc(F)cc(F)c5F)nn4)C[C@H]3C2)cc1" : is its Human M4 Emin strictly below 3%?
Not fulfilled

Record "[2H]C([2H])(CCOC)N1C[C@H]2C[C@H](Nc3ccc(-c4cc(F)cc(F)c4F)nn3)C[C@H]2C1" : is its Human M4 Emin strictly below 3%?
Not fulfilled

Record [2H]C(C)(N1C[C@H]2C[C@H](Nc3ccc(-c4cc(F)cc(F)c4F)nn3)C[C@H]2C1)C1(C)CCOCC1 (some centres unmarked) : is its Human M4 Emin strictly below 3%?
Fulfilled

* * *

Target Entity: Human M4 (Homo sapiens)
Construct: Human or rat M4 cDNA, along with the chimeric G protein Gq,5, were transfected into Chinese hamster ovary (CHO-K1) cells
Assay: mAChR M4 cell-based functional assay (calcium flux, decrease of EC80 acetylcholine response)
Experimental Setup: CHO-K1 cells with human M4 and Gqi5; EC80 acetylcholine
Reported Metric: log10 IC50 (log10 of the value in nM)
All values: log10 IC50 [nM].

Worked examples follow.
| Molecule | log10 IC50 |
| --- | --- |
| [2H]C([2H])([C@@H]1CCOC1)N1C[C@H]2C[C@H](Nc3ccc(-c4cc(F)cc(F)c4F)nn3)C[C@H]2C1 | 1.50 |
| Fc1cc(F)c(F)c(-c2ccc(N[C@H]3C[C@@H]4CN(C5CCC6(CCOCC6)CC5)C[C@@H]4C3)nn2)c1 | 1.13 |
| [2H]C([2H])(C1CCOCC1(F)F)N1C[C@H]2C[C@H](Nc3ccc(-c4cc(F)cc(F)c4F)nn3)C[C@H]2C1 (stereo partly drawn) | 0.59 |
| [2H]C([2H])(N1C[C@H]2C[C@H](Nc3ccc(-c4cc(F)cc(F)c4F)nn3)C[C@H]2C1)C1(C)CCCOC1 (stereo partly drawn) | 1.41 |
| Fc1cc(F)c(F)c(-c2ccc(N[C@H]3C[C@@H]4CN(CCC(F)(F)F)C[C@@H]4C3)nn2)c1 | 2.91 |

Return log10 IC50 for the following molecule: "Cc1cccc(CN2C[C@H]3C[C@H](Nc4ccc(-c5cc(F)cc(F)c5F)nn4)C[C@H]3C2)n1"
1.58

* * *

Give measured pIC50 for each item. Keep answers brief.
Target Entity: Human M4 (Homo sapiens)
Construct: Human or rat M4 cDNA, along with the chimeric G protein Gq,5, were transfected into Chinese hamster ovary (CHO-K1) cells
Assay: mAChR M4 cell-based functional assay (calcium flux, decrease of EC80 acetylcholine response)
Experimental Setup: CHO-K1 cells with human M4 and Gqi5; EC80 acetylcholine
Numbers only, as −log10 of the molar value.

Worked examples follow.
| Compound | Reported Metric | Reported Result |
| --- | --- | --- |
| Fc1cc(F)c(F)c(-c2ccc(N[C@H]3C[C@@H]4CN(CC5CCCOC5)C[C@@H]4C3)nn2)c1 (single isomer, unassigned) [Compound 24] | pIC50 | 7.86 |
| Fc1cc(F)c(F)c(-c2ccc(N[C@H]3C[C@@H]4CN(Cc5ccccc5F)C[C@@H]4C3)nn2)c1 | pIC50 | 6.77 |
| Fc1cc(F)c(F)c(-c2ccc(N[C@H]3C[C@@H]4CN(C[C@H]5CC6CCC5O6)C[C@@H]4C3)nn2)c1 (stereo partly shown) | pIC50 | 8.83 |
| Fc1cc(F)c(F)c(-c2ccc(N[C@H]3C[C@@H]4CN(CC5CCCOC5)C[C@@H]4C3)nn2)c1 (single isomer, unassigned) [Compound 25] | pIC50 | 8.24 |
| [2H]C(C)(C1CCOCC1)N1C[C@H]2C[C@H](Nc3ccc(-c4cc(F)cc(F)c4F)nn3)C[C@H]2C1 (stereo partly shown) | pIC50 | 8.06 |
| Fc1cc(F)c(F)c(-c2ccc(N[C@H]3C[C@@H]4CN(Cc5cccc(Cl)n5)C[C@@H]4C3)nn2)c1 | pIC50 | 6.95 |
| Fc1cc(F)c(F)c(-c2ccc(N[C@H]3C[C@@H]4CN(Cc5ccc6c(c5)OC(F)(F)O6)C[C@@H]4C3)nn2)c1 | pIC50 | 6.00 |
| CC1(C)CC(CN2C[C@H]3C[C@H](Nc4ccc(-c5cc(F)cc(F)c5F)nn4)C[C@H]3C2)CC(C)(C)O1 | pIC50 | 7.21 |
| Fc1cc(F)c(F)c(-c2ccc(N[C@H]3C[C@@H]4CN(CC5CC(F)(F)C5)C[C@@H]4C3)nn2)c1 | pIC50 | 7.60 |
| COc1ccc(OCCN2C[C@H]3C[C@H](Nc4ccc(-c5cc(F)cc(F)c5F)nn4)C[C@H]3C2)cc1 | pIC50 | 7.22 |

Batch: pIC50 for all items listed.
1. [2H]C([2H])([C@@H]1CCCOC1)N1C[C@H]2C[C@H](Nc3ccc(-c4cc(F)cc(F)c4F)nn3)C[C@H]2C1
2. CC(C)(O)CCN1C[C@H]2C[C@H](Nc3ccc(-c4cc(F)cc(F)c4F)nn3)C[C@H]2C1
3. [2H]C([2H])(N1C[C@H]2C[C@H](Nc3ccc(-c4cc(F)cc(F)c4F)nn3)C[C@H]2C1)C1(OC)CCCOC1 (stereo partly shown)

[7.92, 6.80, 6.74]

* * *

Target Entity: Human M4 (Homo sapiens)
Construct: Human or rat M4 cDNA, along with the chimeric G protein Gq,5, were transfected into Chinese hamster ovary (CHO-K1) cells; expressed in transfected cells; host or cells: CHO-K1 (M4/Gqi5/CHO)
Assay: mAChR M4 cell-based functional assay (calcium flux, decrease of EC80 acetylcholine response)
Experimental Setup: % ACh maximum at 30 μM
Give measured Human M4 Emin for each item. Keep answers brief.
One number for each entry, in %.

Batch: Human M4 Emin for all items listed.
1. CC(C)(C)OCCN1C[C@H]2C[C@H](Nc3ccc(-c4cc(F)cc(F)c4F)nn3)C[C@H]2C1
2. Fc1cc(F)c(F)c(-c2ccc(N[C@H]3C[C@@H]4CN(CC5CCCCO5)C[C@@H]4C3)nn2)c1 (single isomer, unassigned) [Compound 27]
3. CC1(C)CC(CN2C[C@H]3C[C@H](Nc4ccc(-c5cc(F)cc(F)c5F)nn4)C[C@H]3C2)CC(C)(C)O1

1: 3; 2: 4; 3: 2

* * *

Target Entity: Human M4 (Homo sapiens, UniProt P08173)
Construct: Human or rat M4 cDNA, along with the chimeric G protein Gq,5, were transfected into Chinese hamster ovary (CHO-K1) cells; expressed in transfected cells; host or cells: CHO-K1 (M4/Gqi5/CHO)
Sequence (P08173 whole entry): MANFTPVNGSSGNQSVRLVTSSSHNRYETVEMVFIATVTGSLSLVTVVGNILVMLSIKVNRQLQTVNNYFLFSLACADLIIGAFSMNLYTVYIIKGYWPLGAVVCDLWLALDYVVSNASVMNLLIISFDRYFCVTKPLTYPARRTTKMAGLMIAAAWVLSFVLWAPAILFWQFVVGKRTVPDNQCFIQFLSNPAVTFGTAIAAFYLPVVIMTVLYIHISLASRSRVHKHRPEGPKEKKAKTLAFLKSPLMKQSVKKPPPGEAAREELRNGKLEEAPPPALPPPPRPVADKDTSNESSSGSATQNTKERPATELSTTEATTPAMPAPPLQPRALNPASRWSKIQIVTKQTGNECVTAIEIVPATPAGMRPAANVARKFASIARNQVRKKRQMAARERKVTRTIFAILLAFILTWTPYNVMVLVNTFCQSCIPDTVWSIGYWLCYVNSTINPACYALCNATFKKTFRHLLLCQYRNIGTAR
Assay: mAChR M4 cell-based functional assay (calcium flux, decrease of EC80 acetylcholine response)
Experimental Setup: % ACh maximum at 30 μM
Reported Metric: Human M4 Emin (%)
Give bare numbers, in %.

Batch: Human M4 Emin for all items listed.
1. [2H]C([2H])([C@H]1CCCCO1)N1C[C@H]2C[C@H](Nc3ccc(-c4cc(F)cc(F)c4F)nn3)C[C@H]2C1
2. Fc1cc(F)c(F)c(-c2ccc(N[C@H]3C[C@@H]4CN(CC5CC6(COC6)C5)C[C@@H]4C3)nn2)c1

1. 3
2. 3

Batch: Human M4 Emin for all items listed.
1. Fc1cc(F)c(F)c(-c2ccc(N[C@H]3C[C@@H]4CN(CC5CCSCC5)C[C@@H]4C3)nn2)c1
2. Fc1cc(F)c(F)c(-c2ccc(N[C@H]3C[C@@H]4CN(Cc5ccccc5F)C[C@@H]4C3)nn2)c1

3
3

Batch: Human M4 Emin for all items listed.
1. [2H]C([2H])([C@@H]1COCCO1)N1C[C@H]2C[C@H](Nc3ccc(-c4cc(F)cc(F)c4F)nn3)C[C@H]2C1
2. [2H]C([2H])(C1CC(C)(C)OC(C)(C)C1)N1C[C@H]2C[C@H](Nc3ccc(-c4cc(F)cc(F)c4F)nn3)C[C@H]2C1
3. [2H]C([2H])([C@@H]1CC12CCOCC2)N1C[C@H]2C[C@H](Nc3ccc(-c4cc(F)cc(F)c4F)nn3)C[C@H]2C1
4. Fc1cc(F)c(F)c(-c2ccc(N[C@H]3C[C@@H]4CN(CC5CCCCO5)C[C@@H]4C3)nn2)c1 (single isomer, unassigned) [Compound 26]

1. 3
2. 3
3. 3
4. 3

Batch: Human M4 Emin for all items listed.
1. CC1(CN2C[C@H]3C[C@H](Nc4ccc(-c5cc(F)cc(F)c5F)nn4)C[C@H]3C2)CCOCC1
2. Fc1cc(F)c(F)c(-c2ccc(N[C@H]3C[C@@H]4CN(C[C@@H]5CC6CCC5O6)C[C@@H]4C3)nn2)c1 (some centres unmarked)
3. Fc1cc(F)c(F)c(-c2ccc(N[C@H]3C[C@@H]4CN(C5CCCCCC5)C[C@@H]4C3)nn2)c1
4. [2H]C([2H])([C@H]1CCOC1)N1C[C@H]2C[C@H](Nc3ccc(-c4cc(F)cc(F)c4F)nn3)C[C@H]2C1

[3, 3, 3, 3]

Batch: Human M4 Emin for all items listed.
1. Fc1cc(F)c(F)c(-c2ccc(N[C@H]3C[C@@H]4CN(CC5CCCOCC5)C[C@@H]4C3)nn2)c1 (some centres unmarked)
2. CC1(O)CC(CN2C[C@H]3C[C@H](Nc4ccc(-c5cc(F)cc(F)c5F)nn4)C[C@H]3C2)C1 (some centres unmarked)

3
3
